Data provenance: paper PMC6917776

Assay: CelltiterGlo viability cell assay
Format: cell-based
Settings: human, CAL851 breast cancer cells, CAL851, 3 day, 9.5 uM; read-out: viability Average
Property Label: viability at 3 day, 9.5 µM (%)
Please state the figure in %; there is no need to write the unit.

According to the records, this compound COc1cc(OC)cc(-c2noc(N3CCN(C)C4(CCN(c5ccnc(C)c5)CC4)C3)n2)c1 [MRK-740] displays viability at 3 day, 9.5 µM of 72

###

Assay: CelltiterGlo viability cell assay
Assay type: cell-based
Settings: human, MDA-MB-436 breast cancer cells, MDA MB436, 6 day, 0.03 uM; read-out: viability Replicate 2
Property Label: viability at 6 day, 0.03 µM (%)
Record the value in %, omitting the unit from your answer.

viability at 6 day, 0.03 µM for COc1cc(OC)cc(-c2noc(N3CCN(C)C4(CCN(c5ccnc(C)c5)CC4)C3)n2)c1 [MRK-740] is 100
